test: Cytotoxicity against mouse P815B cells assessed as cell viability at 10 uM by MTT assay relative to control; format: cell-based; settings: read-out: Activity
assay readout: viability at 10 µM

So what's the measured viability at 10 µM for this one? COc1ccc(-c2c[nH]c3c2C(=O)c2c4c(cn2S(=O)(=O)c2ccc(C)cc2)CCN=C34)cc1 < 50%

Need viability at 10 µM of COc1ccc(C2CNC3=C2C(=O)c2c(ccn2S(=O)(=O)c2ccc(C)cc2)C3=O)cc1 (centres undefined) , thanks. > 90%

Look up viability at 10 µM for this molecule: Cn1cc(C[C@H](N)C(=O)O)c2ccccc21 > 90%

Query (molecule): COc1ccc(-c2c[nH]c3c2C(=O)c2[nH]ccc2C3=O)cc1 ; field requested: viability at 10 µM < 50%

Recorded viability at 10 µM for COc1ccc(C(O)CNC2=CC(=O)c3c(c(CCNC(=O)OC(C)(C)C)cn3S(=O)(=O)c3ccc(C)cc3)C2=O)cc1 (centres undefined) , please? > 90%

Query: viability at 10 µM; subject: COc1ccc(-c2c[nH]c3c2C(=O)c2cc[nH]c2C3=O)cc1 < 50%

I have this molecule here, COc1ccc(-c2c[nH]c3c2C(=O)c2ccn(S(=O)(=O)c4ccc(C)cc4)c2C3=O)cc1 , and I need its recorded viability at 10 µM. > 90%

Give its viability at 10 µM value. Item: COc1ccc(-c2c[nH]c3c2C(=O)c2c(c(CCN)cn2S(=O)(=O)c2ccc(C)cc2)C3=O)cc1 > 90%

Which viability at 10 µM reading was recorded for the molecule COc1ccc(-c2c[nH]c3c2C2=NCCc4c[nH]c(c42)C3=O)cc1 ? > 90%
